# test-summary: CREB reporter modulators under forskolin, primary screen, cell-based, PC12, CRE-LacZ reporter, forskolin-stimulated (AID 1146);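 note: PC12 cells with 6xCRE LacZ reporter stimulated by forskolin 10 µM; beta-galactosidase reporter signal reflecting CREB driven transcription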
# condition-description: luminescence, 4.5 h, higher = more signal, called active from +8 up or from −8 down
measured-parameter: z-score
Please give the numeric answer without any surrounding text.

                      smiles_representation  test_value
0  COc1ccc([Si](C)(C)[C@@H]2[C@@H](CC(=O)N3CCC[C@H]3CO)O[C@]3(C(=O)N(Cc4ccc(N5CCC5=O)cc4)c4ccccc43)[C@H]2C)cc1       -1.19

# input compound: `CC(C)(C)OC(=O)CC[C@@]12N=C(c3ccc(OCCCO)cc3)O[C@@H]1c1ccccc1N(Cc1ccccc1)C2=O` ; wanted: its z-score
-1.25

Endpoint output: z-score of `COc1ccc(/C=C/C(=O)c2cccc(OCC(=O)OC(C)(C)C)c2)cc1` . Value?
-0.588

# query: z-score of entry `O=C1c2ccccc2[C@@]2(Cc3ccccc3N(CC(F)(F)F)C2=O)[C@H](c2ccc(CO)cc2)N1Cc1ccccc1C(F)(F)F`
-1.56

GET /values?readout=z-score&item= `COc1ccc([Si](C)(C)[C@@H]2[C@@H](CCn3cc(CCO)nn3)O[C@]3(C(=O)N(Cc4ccc(N5C(=O)c6cccc7cccc5c67)cc4)c4ccccc43)[C@H]2C)cc1`
-1.65

Would you mind telling me what z-score value was observed for `C=C(C(=O)CC[C@@H](OC(C)=O)c1ccccc1OCCO)C(C)C` ?
-1.21

Cited source for all entries: PubChem BioAssay
